FYI, the data here is from the supplement of paper PMC10567573.

B1: FAM46D (parent)
chain: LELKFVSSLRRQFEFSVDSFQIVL

- Variants of: B1
- PROCEDURE_SUMMARY: protein stability index of a GFP-peptide fusion (GPS, HEK-293T) (PSI 1-6); higher = more stable;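 note: lentivirally expressed fusions sorted by FACS into six bins by GFP to DsRed ratio, PSI derived from sequencing read proportions per bin multiplied by bin number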
- MEASUREMENT_CONTEXT: c terminus: a fixed tail appended
// protein stability index lookup, one value per entry

[
  {
    "MONOMER_SEQUENCE": "VELKFVSSLRRQFEFSVDSFQIVL [L1V]",
    "protein stability index": 2.79
  },
  {
    "MONOMER_SEQUENCE": "LELKFVSSLRRQYEFSVDSFQIVL [F13Y]",
    "protein stability index": 1.76
  },
  {
    "MONOMER_SEQUENCE": "LELKFVSSLRRQFEFSRDSFQIVL [V17R]",
    "protein stability index": 3.4
  }
]
